molecular target: hTASK-3 (K2P9.1, KCNK9) (Homo sapiens); construct: full-length cDNA in pBR4-TOPO (mutants in pCDNA3); cRNA injected into Xenopus laevis oocytes; assay: two-electrode voltage clamp, Xenopus oocytes; details: read-out: TASK-3
Sequence (Q9NPC2 whole entry): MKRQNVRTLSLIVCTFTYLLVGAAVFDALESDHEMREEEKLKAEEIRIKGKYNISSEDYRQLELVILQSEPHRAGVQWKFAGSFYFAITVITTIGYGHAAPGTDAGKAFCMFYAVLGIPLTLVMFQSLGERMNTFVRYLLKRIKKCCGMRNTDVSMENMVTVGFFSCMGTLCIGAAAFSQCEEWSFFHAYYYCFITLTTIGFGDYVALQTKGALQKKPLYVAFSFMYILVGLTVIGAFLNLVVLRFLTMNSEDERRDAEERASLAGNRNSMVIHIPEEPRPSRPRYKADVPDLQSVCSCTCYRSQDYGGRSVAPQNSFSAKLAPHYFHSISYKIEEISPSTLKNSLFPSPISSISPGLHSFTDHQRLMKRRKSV
Metric: IC50 (µM)

Here's what some known entries look like.
[[record]]
mol = "COc1cc(CNC(=O)CCCC/C=C/C(C)C)ccc1O"
quantity_unit = "µM"
value_reported = 41.8

[[record]]
mol = "CCCCC[C@H](O)CC(=O)CCc1ccc(O)c(OC)c1"
quantity_unit = "µM"
value_reported = 385


A = CC1(C)CCC[C@]2(C)[C@@H](C=O)C(C=O)=CC[C@@H]12
B = O=C(/C=C/C=C/c1ccc2c(c1)OCO2)N1CCCCC1
Data request: Which entry has a larger number for IC50, A or B ? Provide the label of your selected option as the answer.
Data returned: A
(A: 328 µM, B: 133 µM)
